src = the supplement of paper PMC6555819

Tested on: PPARg:RXRa (NR concentration 180 nM, RXRa partner concentration 90 nM)
Assay: PBM binding z-score (relative to random genomic background probes); higher = stronger binding; sequences stand for … in GC…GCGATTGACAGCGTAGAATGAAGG
PBM binding z-score vs 1: at or above is met, below is not met.

>>> group_label("TTACCAAGGTGAAAAGTCGTTGATGCACGCCTTG")
"met"
>>> group_label("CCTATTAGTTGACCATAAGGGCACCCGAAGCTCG")
"not met"
>>> group_label("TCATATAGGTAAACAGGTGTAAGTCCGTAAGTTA")
"met"
>>> group_label("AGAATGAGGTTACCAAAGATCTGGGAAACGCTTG")
"met"
>>> group_label("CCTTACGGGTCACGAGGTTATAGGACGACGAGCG")
"met"
>>> group_label("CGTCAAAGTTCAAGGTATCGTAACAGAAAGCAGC")
"met"
>>> group_label("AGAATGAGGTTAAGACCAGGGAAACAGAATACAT")
"met"
>>> group_label("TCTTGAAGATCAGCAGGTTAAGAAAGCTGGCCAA")
"not met"
>>> group_label("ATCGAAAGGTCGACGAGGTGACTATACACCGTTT")
"met"
>>> group_label("TAGCCTAGGTCATGCGGGCCAGGATAGTGTCGGC")
"met"
>>> group_label("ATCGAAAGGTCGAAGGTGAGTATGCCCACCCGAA")
"met"
>>> group_label("GCTAGCAGGCCATTTGGGTTACTCAATGACGGGC")
"not met"
>>> group_label("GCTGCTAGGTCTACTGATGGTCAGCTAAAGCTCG")
"not met"
>>> group_label("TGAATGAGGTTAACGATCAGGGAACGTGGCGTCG")
"met"
>>> group_label("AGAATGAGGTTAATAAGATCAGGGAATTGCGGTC")
"met"
>>> group_label("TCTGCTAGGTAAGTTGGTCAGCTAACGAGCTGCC")
"not met"
>>> group_label("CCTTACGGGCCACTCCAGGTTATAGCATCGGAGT")
"not met"
>>> group_label("TCTTGTAGATCTAGCAGGTTAAGAAAGCCTGAGT")
"not met"
>>> group_label("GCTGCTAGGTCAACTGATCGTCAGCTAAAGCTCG")
"met"
>>> group_label("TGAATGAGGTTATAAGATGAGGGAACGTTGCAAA")
"met"
>>> group_label("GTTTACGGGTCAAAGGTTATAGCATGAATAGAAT")
"met"
>>> group_label("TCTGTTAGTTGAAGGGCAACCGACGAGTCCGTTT")
"not met"
>>> group_label("TCATATAGGTAAAAGGTGGAAGTCGGTGTGGTAA")
"met"
>>> group_label("GGAACGAGGGCATTCGAGTTGATGGCATGGCGAT")
"not met"
>>> group_label("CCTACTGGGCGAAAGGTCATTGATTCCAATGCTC")
"met"
>>> group_label("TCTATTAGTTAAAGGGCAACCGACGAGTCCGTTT")
"met"
>>> group_label("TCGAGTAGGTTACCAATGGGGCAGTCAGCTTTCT")
"not met"
>>> group_label("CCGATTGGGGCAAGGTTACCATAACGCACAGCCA")
"met"
>>> group_label("TCTTGTAGATGAGCAGGTTAAGAAAGCTGGCCAA")
"not met"
>>> group_label("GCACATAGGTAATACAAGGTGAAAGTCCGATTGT")
"not met"
>>> group_label("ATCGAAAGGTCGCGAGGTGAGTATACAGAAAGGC")
"met"
>>> group_label("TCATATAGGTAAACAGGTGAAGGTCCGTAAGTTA")
"met"
>>> group_label("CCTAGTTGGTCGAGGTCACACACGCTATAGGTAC")
"met"
>>> group_label("TCTAGTTGGTCACGGAGGTCACACAAGACGGGTA")
"met"
>>> group_label("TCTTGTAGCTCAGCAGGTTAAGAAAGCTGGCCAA")
"not met"
>>> group_label("GGAACGAGGGCATCCGAGTTGATAGCATGGCGAT")
"met"
>>> group_label("ATCGAAAGGTCGAGGCGAGTATAGAGAAAGGGAA")
"met"
>>> group_label("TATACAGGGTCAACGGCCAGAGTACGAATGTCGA")
"met"
>>> group_label("GGAACGTGGGCAAAGTTGATAGCATCTGTCGACG")
"met"
>>> group_label("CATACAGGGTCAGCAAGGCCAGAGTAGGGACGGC")
"met"
>>> group_label("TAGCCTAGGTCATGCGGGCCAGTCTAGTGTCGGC")
"met"
>>> group_label("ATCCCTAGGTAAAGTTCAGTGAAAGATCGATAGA")
"met"
>>> group_label("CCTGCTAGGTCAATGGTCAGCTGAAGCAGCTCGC")
"met"
